# Experiment Summary: Human HepG2 cell viability assay in 384 well format
# Type: toxicity, cell-based
# Parameters: dose 125 nL, time 70.5 hour; concentration not given beside the values
# Study Conditions: HepG2 cells, read-out: Inhibition
Measured cytotoxicity at 70.5 h by item
Give the number; % is assumed, so skip it.

Please review the entries below; each comes with its answer.
>  <Compound>
N#Cc1cc2c(nc1SCc1cc(O)nc(O)n1)CCCCC2

>  <cytotoxicity at 70.5 h [%]>
-1.03

$$$$
>  <Compound>
Cc1c(Cl)cccc1S(=O)(=O)N1C[C@@H]2CC[C@H](C1)N(C)C2=O

>  <cytotoxicity at 70.5 h [%]>
1.2

$$$$

Note to self: cytotoxicity at 70.5 h recorded for Cn1cncc1-c1nnc([C@H]2CCN(Cc3ccc(CO)o3)C2)o1 was 5.94

Note to self: cytotoxicity at 70.5 h recorded for CC(=O)N(Cc1noc(C2CC2)n1)C1CCN(CC(=O)NC2CC2)C1 (stereo not drawn) was -7.63

Note to self: cytotoxicity at 70.5 h recorded for Cc1cnn(CCC(=O)N2CCN(c3ncccc3Cl)CC2)c1 was -0.781
